// data source = the Immune Epitope Database (IEDB)

# ASSAY_TARGET: HLA-A*31:01
# PROTOCOL_NOTES: IEDB peptide-MHC binding, purified MHC/competitive/radioactivity; filed as Kd, often an IC50 or EC50 that approximates it; bounds were set here for any values at or beyond the usual limits of such assays
# MEASUREMENT_PARAMETERS: source organism: Plasmodium falciparum 3D7
MEASURED_METRIC: pKd
Would you please state pKd, meaning minus log10 of the concentration in mol/L, as a bare number?

// solved cases for pKd follow
SEQUENCE_INPUT: GTMYILLKK
pKd: 7.54
--
SEQUENCE_INPUT: IALLIIPPK
pKd: 5.53
--
SEQUENCE_INPUT: PVLTSLFNK
pKd: 5.29
--
SEQUENCE_INPUT: AFLESQSMNK
pKd: 5.00
--
SEQUENCE_INPUT: VVCSMEYKK
pKd: 6.05
--
SEQUENCE_INPUT: AVSEIQNNK
pKd: 5.84

Query :: Item KINSNFLLK has what recorded pKd?
Result :: 7.17

Query :: How about IFLRFIPDK ?
Result :: 5.78

Query :: How about YLFNQHIKK ?
Result :: 5.31
